System: mitochondria or chloroplast of Chlamydomonas reinhardtii
Experiment: Subcellular localization of Venus reporter by epifluorescence microscopy (manual targeting assignment)
Type: cell-based
Settings: manual targeting assignment of the Venus reporter construct in Chlamydomonas: Neither / Mitochondria / Chloroplast / Dual, (partial) = partial targeting

seq text | Localisation
MSVRRAQLQVVASSRKQMGRWRSIDAGVDASDDQ [-.c] | Neither
MQVTMKSSAVSGQRVMLKKVGQSLVPFAKAGLTQTAESFKGVSSQFFDAPNGPSVKQVLIEDEW [c.MH.K.m] | Neither
MLKKVGQSLVPFAKAGLTQTAESFKGVSSQFFDAPNGPSVKQVLIEDEW [MH.K.m] | Neither
MLKKVGQSLVPFAKAGSVRRAQLQVVASSRKQMGRWRSIDAGVDASDDQ [MH.K.c] | Dual
MLTQTAESFRGVSSQFFDAPNGPSVKQVLIEDEW [-.m] | Neither
MDEVNNDNCRIRFRGDISSESDRMNINYSVRRAQLQVVASSRKQMGRWRSIDAGVDASDDQ [RP2.R.c] | Neither

====

System: mitochondria or chloroplast of Chlamydomonas reinhardtii
Assay: Subcellular localization of Venus reporter by epifluorescence microscopy (manual targeting assignment)
Assay type: cell-based
Settings: targeting of the Venus reporter fused to the peptide, expressed in Chlamydomonas reinhardtii; manual assignment from epifluorescence microscopy; full or partial

seq text | Localisation
MDEVNNDNCRIKFKGDISSESDKMNINYLTQTAESFRGVSSQFFDAPNGPSVKQVLIEDEW [RP2.K.m] | Neither
MKYYGNGVSCNKKGCSVDWGKAIGIIGNNAAANLTTGGKAGWKGSVRRAQLQVVASSRKQMGRWRSIDAGVDASDDQ [EHF.K.c] | Chloroplast (partial)
MQVTMKSSAVSGQRVNIVVYWNFTLWHMDINARNAGCDGEGS [c.RP1.K] | Neither
MDEVNNDNCRIKFKGDISSESDKMNINYSVRRAQLQVVASSRKQMGRWRSIDAGVDASDDQ [RP2.K.c] | Neither
MQVTMKSSAVSGQRVALWMTLLRRVLRAAARAALNAVLVGANASVRRAQLQVVASSRKQMGRWRSIDAGVDASDDQ [c.DS4.R.c] | Neither
MQVTMKSSAVSGQRVAAAAAAAASVRRAQLQVVASSRKQMGRWRSIDAGVDASDDQ [c.AA.c] | Chloroplast (partial)
MQVTMKSSAVSGQRVMGKIPVKAIKKAGAAIGKGLRAINIASTAHDVYSFFKPKHKKK [c.SIM.K] | Chloroplast (partial)
MGWIRDFGKRIERVGQHTRDATIQTIAVAQQAANVAATLKGLTQTAESFRGVSSQFFDAPNGPSVKQVLIEDEW [S1D.K.m] | Neither
MQVTMKSSAVSGQRVMALWKTMLKKLGTMALHAGKAAFGAAADTISQLTQTAESFRGVSSQFFDAPNGPSVKQVLIEDEW [c.DDM.K.m] | Neither
MQVTMKSSAVSGQRVMSFLTTFKDLAIKAAKSAGQSVLSTLSCKLSNTCSVRRAQLQVVASSRKQMGRWRSIDAGVDASDDQ [c.B2I.K.c] | Chloroplast (partial)
MNIVVYWNFTLWHMDINARNAGCDGEGS [RP1.K] | Neither
MQVTMKSSAVSGQRVNIVVYWNFTLWHMDINARNAGCDGEGSLTQTAESFRGVSSQFFDAPNGPSVKQVLIEDEW [c.RP1.K.m] | Neither
MQVTMKSSAVSGQRVDEVNNDNCRIKFKGDISSESDKMNINY [c.RP2.K] | Neither
MALWKTMLKKLGTMALHAGKAAFGAAADTISQLTQTAESFRGVSSQFFDAPNGPSVKQVLIEDEW [DDM.K.m] | Neither
MKYYGNGVSCNKKGCSVDWGKAIGIIGNNAAANLTTGGKAGWKGLTQTAESFRGVSSQFFDAPNGPSVKQVLIEDEW [EHF.K.m] | Neither
MNIVVYWNFTLWHMDINARNAGCDGEGSLTQTAESFRGVSSQFFDAPNGPSVKQVLIEDEW [RP1.K.m] | Neither
MQVTMKSSAVSGQRVMWLSRTARRLENSARRRISEGIAIAIRGGSR [c.CP3.R] | Chloroplast (partial)
MQVTMKSSAVSGQRVMGWIRDFGKRIERVGQHTRDATIQTIAVAQQAANVAATLKGSVRRAQLQVVASSRKQMGRWRSIDAGVDASDDQ [c.S1D.K.c] | Chloroplast
MQVTMKSSAVSGQRVMWLSKTAKKLENSAKKRISEGIAIAIKGGSRLTQTAESFRGVSSQFFDAPNGPSVKQVLIEDEW [c.CP3.K.m] | Chloroplast
MQVTMKSSAVSGQRVMWLSKTAKKLENSAKKRISEGIAIAIKGGSR [c.CP3.K] | Neither

====

Test system: mitochondria or chloroplast of Chlamydomonas reinhardtii
Experiment: Subcellular localization of Venus reporter by epifluorescence microscopy (manual targeting assignment)
Type: cell-based
Settings: peptide-Venus reporter construct expressed in Chlamydomonas reinhardtii; manual targeting assignment (Neither / Mitochondria / Chloroplast / Dual; partial = partial targeting)

seq text | Localisation
MQVTMKSSAVSGQRVMKYYGNGVHCTKSGCSVNWGEAFSAGVHRLANGGNGFWLTQTAESFRGVSSQFFDAPNGPSVKQVLIEDEW [c.LCA.K.m] | Chloroplast
MKYYGNGVHCTRSGCSVNWGEAFSAGVHRLANGGNGFWLTQTAESFRGVSSQFFDAPNGPSVKQVLIEDEW [LCA.R.m] | Neither
MWLSKTAKKLENSAKKRISEGIAIAIKGGSRSVRRAQLQVVASSRKQMGRWRSIDAGVDASDDQ [CP3.K.c] | Neither
MQVTMKSSAVSGQRVGIGKFLHSAKKFGKAFVGEIMNSSVRRAQLQVVASSRKQMGRWRSIDAGVDASDDQ [c.MII.K.c] | Chloroplast
MALWMTLLKKVLKAAAKAALNAVLVGANA [DS4.K] | Neither
MVNYGNGVSCSRTRCSVNWGIITHQAFRVTSGVASGLTQTAESFRGVSSQFFDAPNGPSVKQVLIEDEW [B15.R.m] | Neither
MGLFSKFNKKKIKSGLIKIIKTAGKEAGLEALRTGIDVIGCKIKGEC [E1S.K] | Neither

====

Tested on: mitochondria or chloroplast of Chlamydomonas reinhardtii
Assay: Subcellular localization of Venus reporter by epifluorescence microscopy (manual targeting assignment)
Type: cell-based
Settings: peptide-Venus reporter construct expressed in Chlamydomonas reinhardtii; manual targeting assignment (Neither / Mitochondria / Chloroplast / Dual; partial = partial targeting)

seq text | target of assay | Localisation
MALWMTLLKKVLKAAAKAALNAVLVGANALTQTAESFRGVSSQFFDAPNGPSVKQVLIEDEW [DS4.K.m] | mitochondria or chloroplast of Chlamydomonas reinhardtii | Neither
MQVTMKSSAVSGQRVFLPLLAGLAANFLPKIFCKITRKCSVRRAQLQVVASSRKQMGRWRSIDAGVDASDDQ [c.B1E.K.c] | mitochondria or chloroplast of Chlamydomonas reinhardtii | Chloroplast
MGIGRFLHSARRFGRAFVGEIMNSSVRRAQLQVVASSRKQMGRWRSIDAGVDASDDQ [MII.R.c] | mitochondria or chloroplast of Chlamydomonas reinhardtii | Mitochondria
MQVTMKSSAVSGQRVMWLSRTARRLENSARRRISEGIAIAIRGGSRSVRRAQLQVVASSRKQMGRWRSIDAGVDASDDQ [c.CP3.R.c] | mitochondria or chloroplast of Chlamydomonas reinhardtii | Chloroplast
MFLPLLAGLAANFLPRIFCRITRRCLTQTAESFRGVSSQFFDAPNGPSVKQVLIEDEW [B1E.R.m] | mitochondria or chloroplast of Chlamydomonas reinhardtii | Neither
MVNYGNGVSCSRTRCSVNWGIITHQAFRVTSGVASGSVRRAQLQVVASSRKQMGRWRSIDAGVDASDDQ [B15.R.c] | mitochondria or chloroplast of Chlamydomonas reinhardtii | Chloroplast
MVNYGNGVSCSKTKCSVNWGIITHQAFRVTSGVASG [B15.K] | mitochondria or chloroplast of Chlamydomonas reinhardtii | Neither
MGLFSRFNRRRIRSGLIRIIRTAGREAGLEALRTGIDVIGCRIRGECSVRRAQLQVVASSRKQMGRWRSIDAGVDASDDQ [E1S.R.c] | mitochondria or chloroplast of Chlamydomonas reinhardtii | Neither
MQVTMKSSAVSGQRVMVNYGNGVSCSKTKCSVNWGIITHQAFRVTSGVASGLTQTAESFRGVSSQFFDAPNGPSVKQVLIEDEW [c.B15.K.m] | mitochondria or chloroplast of Chlamydomonas reinhardtii | Chloroplast
MGIGKFLHSAKKFGKAFVGEIMNSSVRRAQLQVVASSRKQMGRWRSIDAGVDASDDQ [MII.K.c] | mitochondria or chloroplast of Chlamydomonas reinhardtii | Mitochondria
MVNYGNGVSCSRTRCSVNWGIITHQAFRVTSGVASG [B15.R] | mitochondria or chloroplast of Chlamydomonas reinhardtii | Neither
MQVTMKSSAVSGQRVMGLFSKFNKKKIKSGLIKIIKTAGKEAGLEALRTGIDVIGCKIKGECSVRRAQLQVVASSRKQMGRWRSIDAGVDASDDQ [c.E1S.K.c] | mitochondria or chloroplast of Chlamydomonas reinhardtii | Chloroplast
MFLPLLAGLAANFLPKIFCKITRKC [B1E.K] | mitochondria or chloroplast of Chlamydomonas reinhardtii | Neither
MQVTMKSSAVSGQRVGIGKFLHSAKKFGKAFVGEIMNS [c.MII.K] | mitochondria or chloroplast of Chlamydomonas reinhardtii | Mitochondria
MWLSRTARRLENSARRRISEGIAIAIRGGSRSVRRAQLQVVASSRKQMGRWRSIDAGVDASDDQ [CP3.R.c] | mitochondria or chloroplast of Chlamydomonas reinhardtii | Chloroplast
MQVTMKSSAVSGQRVMKYYGNGVHCTRSGCSVNWGEAFSAGVHRLANGGNGFWSVRRAQLQVVASSRKQMGRWRSIDAGVDASDDQ [c.LCA.R.c] | mitochondria or chloroplast of Chlamydomonas reinhardtii | Chloroplast
MVNYGNGVSCSKTKCSVNWGIITHQAFRVTSGVASGLTQTAESFRGVSSQFFDAPNGPSVKQVLIEDEW [B15.K.m] | mitochondria or chloroplast of Chlamydomonas reinhardtii | Neither
MQVTMKSSAVSGQRVMVNYGNGVSCSRTRCSVNWGIITHQAFRVTSGVASG [c.B15.R] | mitochondria or chloroplast of Chlamydomonas reinhardtii | Chloroplast
MQVTMKSSAVSGQRVMGLFSRFNRRRIRSGLIRIIRTAGREAGLEALRTGIDVIGCRIRGECSVRRAQLQVVASSRKQMGRWRSIDAGVDASDDQ [c.E1S.R.c] | mitochondria or chloroplast of Chlamydomonas reinhardtii | Chloroplast
MQVTMKSSAVSGQRVGIGRFLHSARRFGRAFVGEIMNS [c.MII.R] | mitochondria or chloroplast of Chlamydomonas reinhardtii | Mitochondria
